target under test: T1, recombinant human heat shock cognate 71 kDa protein (Hsc70) (human, UniProt P11142 1-646, limits assumed)
T1 construct: also called rhHsc70; human Hsc70
T1 sequence (P11142 whole entry): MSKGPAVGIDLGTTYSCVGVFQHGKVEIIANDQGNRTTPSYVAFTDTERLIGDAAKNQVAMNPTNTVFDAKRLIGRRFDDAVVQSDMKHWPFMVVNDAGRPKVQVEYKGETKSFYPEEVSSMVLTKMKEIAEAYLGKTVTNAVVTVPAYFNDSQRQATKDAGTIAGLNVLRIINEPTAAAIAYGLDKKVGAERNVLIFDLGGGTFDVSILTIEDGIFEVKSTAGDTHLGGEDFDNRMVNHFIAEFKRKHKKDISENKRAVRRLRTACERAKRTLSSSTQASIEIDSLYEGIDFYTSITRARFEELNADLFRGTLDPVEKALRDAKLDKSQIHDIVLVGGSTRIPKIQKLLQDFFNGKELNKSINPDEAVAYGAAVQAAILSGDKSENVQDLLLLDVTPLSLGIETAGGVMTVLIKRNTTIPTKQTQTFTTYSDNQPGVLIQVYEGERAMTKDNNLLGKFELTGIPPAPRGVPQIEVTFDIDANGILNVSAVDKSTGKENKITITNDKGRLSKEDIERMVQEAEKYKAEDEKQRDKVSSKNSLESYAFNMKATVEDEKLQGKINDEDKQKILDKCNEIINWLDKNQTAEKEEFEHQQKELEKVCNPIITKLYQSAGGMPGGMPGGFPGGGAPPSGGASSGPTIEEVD
assay overview: SEC of peptide-Hsc70 mixture; peptide:Hsc70 molar ratio 1:1
endpoint: Percent complexation with Hsc70 (%)

FFRKQWLRLTW (Synthetic peptide) [PEP014]    80.9
FFRKNWIRITW (Synthetic peptide) [PEP013]    69.6
FFRKNLLRLTG (Synthetic peptide) [PEP001]    68.1
FFRKNWLRLTW (Synthetic peptide) [PEP006]    81.5
FFRKNRLWLTG (Synthetic peptide) [PEP005]    54.8
FFRKNWLKLTW (Synthetic peptide) [PEP012]    79.2
FFRKNWLKLWK (Synthetic peptide) [PEP058]    66.5
FFRKFWLRLTW (Synthetic peptide) [PEP008]    61.8
FFRKNWLRLKW (Synthetic peptide) [PEP011]    81.6
FFRKNWLRLLW (Synthetic peptide) [PEP009]    81
FFRKNWLKLKW (Synthetic peptide) [PEP055]    75.9
